pKi: −log10 of the molar value.
Below: compounds with pKi recorded for UniProt:P18841 in separate published works.
valueType: pKi

[[record]]
compound = "CCS(=O)(=O)Nc1ccc2c(c1)C(c1c[nH]cn1)CCC2 (configuration not stated)"
valuemodifier = "="
testresult = 5.87

[[record]]
compound = "O=C(c1nc(-c2c[nH]c3ccccc23)c[nH]1)c1c[nH]c2cc(O)ccc12"
valuemodifier = "="
testresult = 5.32

[[record]]
compound = "CCS(=O)(=O)Nc1cccc(NC2=NCCN2)c1"
valuemodifier = "<"
testresult = 5.00

[[record]]
compound = "CN(c1c(O)ccc2c1CCCC2C1=NCCN1)S(C)(=O)=O (configuration not stated)"
valuemodifier = "="
testresult = 4.80

[[record]]
compound = "CCS(=O)(=O)Nc1cccc(S(=O)(=O)c2c[nH]cn2)c1"
valuemodifier = "<"
testresult = 5.00

[[record]]
compound = "O=S(=O)(Nc1c(O)ccc2c1CCCC2C1=NCCN1)c1ccccc1 (configuration not stated)"
valuemodifier = "<"
testresult = 5.50

[[record]]
compound = "CCS(=O)(=O)Nc1cccc2c1CCCC2CNC (configuration not stated)"
valuemodifier = "<"
testresult = 5.00

